assay target: CB1 receptor (Homo sapiens, UniProt P21554)
Sequence (P21554 whole entry): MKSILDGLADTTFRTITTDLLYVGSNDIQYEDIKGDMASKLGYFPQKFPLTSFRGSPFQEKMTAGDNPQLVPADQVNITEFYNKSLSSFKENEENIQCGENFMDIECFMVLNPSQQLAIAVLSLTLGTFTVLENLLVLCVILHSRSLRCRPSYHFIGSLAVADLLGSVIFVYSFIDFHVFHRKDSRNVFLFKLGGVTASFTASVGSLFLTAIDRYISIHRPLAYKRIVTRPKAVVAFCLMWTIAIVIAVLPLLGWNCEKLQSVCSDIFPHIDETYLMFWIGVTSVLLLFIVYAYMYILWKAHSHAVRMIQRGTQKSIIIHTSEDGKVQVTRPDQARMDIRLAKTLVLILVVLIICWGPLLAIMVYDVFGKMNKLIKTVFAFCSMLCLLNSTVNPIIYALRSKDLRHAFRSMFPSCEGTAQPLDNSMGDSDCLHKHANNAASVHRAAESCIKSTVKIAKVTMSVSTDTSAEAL
test details: Radioligand binding assay with [3H]CP55,940
condition label: [3H]CP55,940 as orthosteric ligand; ND = no detectable modulation of [3H]CP55,940 binding using up to 32 μM
α: binding cooperativity factor under 10 gets Criterion met, anything at or over 10 gets Criterion not met.

>>> label_class("CCCc1c(C(=O)NCCc2ccc(N(C)C)cc2)[nH]c2ccc(Cl)cc12 [Compound 12d]")
"Criterion not met"
>>> label_class("CCc1c(C(=O)NCCc2ccc(N(C)C)cc2)[nH]c2ccc(OC)cc12 [Compound 21d]")
"Criterion not met"
>>> label_class("CCCc1c(C(=O)NCCc2ccc(N3CCCCC3)cc2)[nH]c2ccc(Cl)cc12 [Compound 12a]")
"Criterion not met"
>>> label_class("CCCCc1c(C(=O)NCCc2ccc(N(C)C)cc2)[nH]c2ccc(Cl)cc12 [Compound 12e]")
"Criterion not met"
>>> label_class("CCCCCCc1c(C(=O)NCCc2ccc(N(C)C)cc2)[nH]c2ccc(Cl)cc12 [Compound 12f]")
"Criterion met"
>>> label_class("CCc1c(C(=O)NCCc2ccc(N(C)C)cc2)[nH]c2cc(OC)ccc12 [Compound 21c]")
"Criterion met"
>>> label_class("CCc1c(C(=O)NCCc2ccc(N(C)C)cc2)[nH]c2cc(Cl)ccc12 [Compound 21a]")
"Criterion not met"
>>> label_class("CCc1c(C(=O)NCCc2ccc(N(C)C)cc2)[nH]c2cc(F)ccc12 [Compound 21b]")
"Criterion not met"
